System: A549/ATCC NSCLC
Assay: NCI-60 one-dose screen, 48 h (100 = growth as untreated, 0 = no growth, -100 = all killed)
Conditions: 10 µM unless noted
Compounds without any hit were thinned out: in the full panel of roughly 83,000, 20% have a hit.
Label Not met if growth falls below 60%; label Met in every other case.

- COMPOUND: "NC(CCl)CCl"
  ANSWER_LABEL: "Met"

Decide: is the reported value of growth for `O=C(CCCC1CCCCC1)OCC(Cl)(Cl)Cl` equal to or greater than 60%?
Met

Can you handle `CC(=O)[O][Hg][c]1c(N)c(C)cc(C)c1F` next?
Met

Would you kindly repeat that for `CNCc1cccnc1` ?
Met

Request: `ClC1=C(Cl)C(Cl)(C2(Cl)C(Cl)=C(Cl)C(Cl)=C2Cl)C(Cl)=C1Cl`
Not met

What about `CN(CCCCN(C)CCOS(C)(=O)=O)CCOS(C)(=O)=O` ?
Met

Also check CC(CC1CCCCC1)NCc1ccccc1 (centres undefined)
Met

What do you have for `CC[C@]12C=CCN3CC[C@]4(C(=C(C(=O)OC)C1)Nc1cc(OC)c(OC(C)=O)cc14)[C@@H]32` ?
Not met

Try this compound next: O=[N+]([O-])CC(c1ccccc1Cl)c1c(-c2ccccc2)[nH]c2ccccc12 (centres undefined)
Not met

---

Test system: T-47D breast
Assay: NCI-60 one-dose screen, 48 h
Conditions: 10 µM unless noted
Compounds without any hit were thinned out: in the full panel of roughly 83,000, 20% have a hit. The source made the active and inactive calls. Rule for the calls: active = growth percent below 10; inactive = the rest.
Return exactly one item of active, inactive

Would you please look over these solved cases?
- MOLECULE: "CC(=O)OC1CCC2(C)C(CCC3C2CC(=O)C2(C)C3CC(Sc3ccc(N(CCCl)CCCl)cc3)C2C(C)=O)C1 (stereo not given)"
  ANSWER_LABEL: "inactive"
- MOLECULE: "O=C1C(=Cc2cn(Cc3ccccc3)c3ccccc23)C(=O)N(Cc2ccccc2)C(=O)N1Cc1ccccc1"
  ANSWER_LABEL: "inactive"
- MOLECULE: "CC[C@H](C)[C@H](NC(=O)C12CC(NC(C)=O)(C1)C2)C(=O)N(C)[C@H](C[C@@H](OC(C)=O)c1nc(C(=O)N[C@@H](Cc2ccccc2)C[C@H](C)C(=O)OC)cs1)C(C)C"
  ANSWER_LABEL: "inactive"
- MOLECULE: "C[C@]12CC[C@H]3[C@@H](CC4SC(N)=NC45C/C(=N/NC(N)=O)CC[C@]35C)[C@@H]1CCC2=O (stereo not given in full)"
  ANSWER_LABEL: "active"

Tell me the recorded outcome of this test for `Oc1c(CCl)cc(Cl)cc1CCl` .
inactive

# iterate: `CC(=O)Oc1ccccc1C(=O)NCCC[Se]C#N`
inactive

Same thing, different molecule: COC(=O)[C@H](Cc1c[nH]c2ccccc12)NC(=O)[C@@H](OC)[C@@H]1Cc2cc3cc(OC4CC(OC5CC(O)C(O)C(C)O5)C(O)C(C)O4)c(C)c(O)c3c(O)c2C(=O)[C@H]1OC1CC(OC2CC(OC3CC(C)(O)C(O)C(C)O3)C(O)C(C)O2)C(O)C(C)O1 (stereo not given in full)
active

Query `CCCC[C@H](NC(=O)[C@H]1CCCN1C)C(=O)N(C)[C@H](C[C@@H](OC(C)=O)c1nc(C(=O)N[C@@H](Cc2ccccc2)C[C@H](C)C(=O)OCC)cs1)C(C)C` next
inactive

Next entry: CC12CC(=O)C3(SC#N)C(CCC4=CC(=O)CCC43C)C1CCC2=O (stereo not given)
inactive

Please do the same for CN(C)C1C(=O)C(C(N)=O)=C(O)C2(O)C(=O)C3=C(O)c4c(O)cccc4C(C)(O)C3CC12.[Cl][Sb]([Cl])[Cl] (stereo not given) as well.
inactive

Queued: `COc1ccc(NC([Se])=NC23CC4CC(CC(C4)C2)C3)cc1`
active

Please do the same for `CC1=C(O)[C@@](C)(CCCCC[C@H](C)CCCCc2ccc(O)cc2)OOC1=O` as well.
inactive

Likewise for `Cc1c(O)c(CN(CCCl)CCCl)cc(CN(CCCl)CCCl)c1O` ?
inactive

Please answer likewise for Cn1cccc1C1CC(=O)N(CCC[Se]C#N)C1=O (stereo not given)
inactive

Subsequent entry: `COc1cc2c(cc1OCCCn1c(-c3ccccn3)nc3ccccc31)N=C[C@@H]1CCCN1C2=O`
inactive

`CC(=O)Nc1ccc(NC(=O)c2ccc([As](O)O)cc2)cc1` ?
inactive

Also, `CN1C(=O)C(=Cc2cn(Cc3ccccc3)c3ccccc23)C(=O)N(C)C1=O` please.
inactive

Item: `CC[C@H](C)[C@H](NC(=O)[C@H]1CCCCN1C)C(=O)N(C)[C@H](C[C@@H](O)c1nc(C(=O)N[C@@H](Cc2ccccc2)C[C@H](C)C(=O)O)cs1)C(C)C`
inactive

Another molecule to check: ClCCN(CCCl)c1nc(Cl)c(C2CC(c3ccccc3)=NN2c2cc(Cl)cc(Cl)c2)s1 (stereo not given)
inactive

Same read-out for `O=C(c1ccccc1O)c1[nH]c(Cl)c(Cl)c1-n1c(C(=O)c2ccccc2O)cc(Cl)c1Cl` ?
active

Now the same for `CCOP(=O)(Cc1ccc(C#N)cc1)OCC`
inactive

Also need `N#C[Se]Cc1cc(-c2ccccc2)n(-c2ccc(S(N)(=O)=O)cc2)n1` , thanks.
active

Try CC(=O)O[C@H]1C(=O)[C@@]2(C)[C@H]([C@H](OC(=O)c3ccccc3)[C@]3(O)C[C@H](OC(=O)[C@H](OC(=O)OCC4COC(C)(C)O4)[C@@H](NC(=O)c4ccccc4)c4ccccc4)C(C)=C1C3(C)C)[C@]1(OC(C)=O)CO[C@@H]1C[C@@H]2O (stereo not given in full) next.
inactive

// next record CC(CC1CCCCC1)NCc1ccccc1 (stereo not given)
inactive

Then this molecule: `CN(C)C(=O)Oc1ccccc1`
inactive

---

System: NCI-H522 lung
Test: NCI-60 one-dose screen, 48 h
Conditions: 10 µM unless noted
This is part of a sample that, as a whole, favours compounds with a hit. Of some 83,000 tested, about 20% had one in any assay. Calls of active or inactive are those of the source. How the source made its calls: active means growth percent below 10; inactive means the rest.
Write down one outcome, taken from active, inactive

Some solved entries appear below for comparison.
- COMPOUND: "CCCCCCCC[n+]1ccc2ccccc2c1"
  ANSWER_LABEL: "inactive"
- COMPOUND: "CCOC(=O)N[C@H]1CCc2c(Br)c(OC)c(OC)c(OC)c2-c2ccc(SC)c(=O)cc21"
  ANSWER_LABEL: "inactive"
- COMPOUND: "O=C(Nc1ccncc1F)c1cn(CC2CC2)c2ccccc12"
  ANSWER_LABEL: "inactive"
- COMPOUND: "CN(C)CCCOc1ccc2c(c1)c(C(=O)C(=O)NCCO)cn2Cc1ccccc1"
  ANSWER_LABEL: "inactive"
- COMPOUND: "CCCCCCCCCCCCCCCCCC1OC[C@H](COC(=O)O[C@@H](C(=O)O[C@H]2C[C@@]3(O)[C@@H](OC(=O)c4ccccc4)[C@@H]4[C@]5(OC(C)=O)CO[C@@H]5C[C@H](O)[C@@]4(C)C(=O)[C@H](OC(C)=O)C(=C2C)C3(C)C)[C@@H](NC(=O)c2ccccc2)c2ccccc2)O1 (some centres not stated)"
  ANSWER_LABEL: "inactive"

--- query ---
Name the outcome recorded for `CCC[CH2][Sn]([CH2]CCC)([CH2]CCC)[O]c1ccc(Cl)cc1Cl` in the assay.
active

---

System: MDA-MB-231 breast
Assay: NCI-60 one-dose screen, 48 h (100 = growth as untreated, 0 = no growth, -100 = all killed)
Conditions: 10 µM unless noted
Compounds without any hit were thinned out: in the full panel of roughly 83,000, 20% have a hit.
Binary call on growth with cut-off 50%: strictly below means True, and equality or higher means False.

- MOLECULE: "O=[N+]([O-])c1ccc(OP(=O)(CCl)N(CCCl)CCCl)cc1 (stereo unspecified)"
  ANSWER_LABEL: "False"
- MOLECULE: "CCCCCCCC(=O)OCC(=O)[C@]1(O)Cc2c(O)c3c(c(O)c2[C@@H](OC2CC(N)C(O)C(C)O2)C1)C(=O)c1c(OC)cccc1C3=O (stereo partly specified)"
  ANSWER_LABEL: "True"
- MOLECULE: "C=CC[PH+](c1ccccc1)c1ccccc1.C=CC[PH+](c1ccccc1)c1ccccc1.[Cl][Pt][Cl]"
  ANSWER_LABEL: "True"
- MOLECULE: "C[C@]12CC[C@@H]3c4ccc(Oc5nc(N6CC6)nc(N6CC6)n5)cc4CC[C@H]3[C@@H]1CCC2=O"
  ANSWER_LABEL: "False"
- MOLECULE: "COc1cccc(/C=C/[N+](=O)[O-])c1"
  ANSWER_LABEL: "False"
- MOLECULE: "Cc1cc(N(CCCl)CCCl)ccc1/C=N\\NC(=O)c1ccncc1"
  ANSWER_LABEL: "False"
- MOLECULE: "CCCCOc1ccc(C(N)Cc2ccccc2)cc1 (stereo unspecified)"
  ANSWER_LABEL: "False"
- MOLECULE: "Cc1sc2c(c1C)C(c1ccc(Cl)cc1)=N[C@@H](CC(=O)OC(C)(C)C)c1nnc(C)n1-2"
  ANSWER_LABEL: "True"

Input `CC(=O)O[C@H]1CC[C@H]2[C@@H]3CC=C4c5nc(-c6ccccc6)sc5CC[C@]4(C)[C@H]3CC[C@]12C` ; condition: growth strictly below 50%. Does it hold?
False

What would you report for `C[C@]12CCc3sc(-c4cccc(F)c4)nc3C1=CC[C@@H]1[C@@H]2CC[C@]2(C)C(=O)CC[C@@H]12` ?
False

Repeat with `C[C@@]12CC[C@@H](O)C[C@@H]1CC[C@H]1[C@H]2CC[C@@]2(C)[C@H](c3ccc(=O)oc3)CC[C@@]12O`
True

What do you get for C1CCC([PH+](C2CCCCC2)C2CCCCC2[PH+](C2CCCCC2)C2CCCCC2)CC1.[Au].[CH-]1CCCCC1CC1CCCC[N-]1 (stereo unspecified) ?
True

What would you report for NC1CC2CCCCC2CC1(O)c1ccccc1 (stereo unspecified) ?
False

Then this molecule: `CC[C@H](C)[C@H](NC(=O)[C@H]1CCCCN1C)C(=O)N(C)[C@H](CCc1nc(C(=O)N[C@@H](Cc2ccccc2)C[C@H](C)C(=O)OC)cs1)C(C)C`
True

Cool, now `Nc1ccc2c(c1)oc1ccccc12`
False
